For each of the compounds below, state its growth inhibition.
test: NCI Yeast Anticancer Drug Screen. Data for the cln2 rad14 strain (AID 165);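 further: 0% = growth equal to vehicle treated cultures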; details: S. cerevisiae cln2 rad14 strain, at 50.0 µM, hits give high values
The panel holds about 79,000 compounds, 15% with a hit somewhere; the sample as a whole holds those more often. Activity calls are given as the source filed them. No stated cut-off is given here; in the data, active means growth inhibition above about 70%; inactive means the rest.

Enquiry: Answer with the recorded growth inhibition for the compound listed here: `CCN(CC)Cc1ccccc1COC(=O)c1cccc(Cl)c1`
Return: 15.8% (inactive)

Enquiry: Indicate its recorded growth inhibition; the compound in question is `OCC(I)CO`
Return: 1.45% (inactive)

Enquiry: For `CC(C)(C)N(OC(=O)c1ccccc1)C(=O)c1ccccc1` , write its growth inhibition.
Return: 5.45% (inactive)

Enquiry: Please report the measured growth inhibition for `Clc1cc(Cl)c2ncccc2c1`
Return: -30.2% (inactive)

Enquiry: Identify measured growth inhibition associated with `Cc1c(C(=O)CC(=O)C(=O)Nc2ccccc2C(F)(F)F)[n+](=O)c2ccccc2n1[O-]`
Return: 16.9% (inactive)

Enquiry: // fetch growth inhibition given entry `CCCCOC(=O)C(=O)/C(=C\n1c(=S)[nH]c2cc(C)ccc21)C(=O)C=C(C)C`
Return: -22.4% (inactive)

Enquiry: Please look at this compound and report its growth inhibition: `CCc1ccc(N=Nc2c(F)c(F)c(N)c(F)c2F)cc1`
Return: 2.85% (inactive)

Enquiry: Consider the compound `CCCCNC(=O)/C=C\C(=O)O` . State its measured growth inhibition.
Return: 2.75% (inactive)

Enquiry: Tell us which growth inhibition value is on record for `Cc1nc(-c2cc3c(ccc4ccccc43)oc2=O)cs1`
Return: 25.8% (inactive)

Enquiry: Return growth inhibition for the following compound: CC1(O)C2C3C(I)C4C5C3C1C5C42 (configuration not stated)
Return: 6.7% (inactive)

Enquiry: Provide measured growth inhibition value, entry: O=C1OC(C2Cc3cc4c(cc3C2=O)CCC4)c2ccccc21 (configuration not stated)
Return: -2.55% (inactive)

Enquiry: Give growth inhibition for the following compound: `COc1cccc(/C=C2/Sc3sc(C(C)=O)c(C)[n+]3C2=O)c1O`
Return: -2.05% (inactive)
